Measured values drawn from patent US20080221205A1 for this set.

test system: osteoclast formation; assay: Inhibition rate of furan derivatives versus osteoclast formation (TRAP staining); type: cell-based, mice; details: 10 μM; TRAP-positive multinucleated cells, untreated control set as 100%
Listed next: entries and their corresponding Inhibition rate against osteoclast formation, %.
Lab book: enter the figure in %, no units written.

# annotated cases, reported Inhibition rate against osteoclast formation, % shown
O=Cc1ccc(COC(=O)Cc2c(F)cccc2F)o1    50
CC(C)(C)NC(=O)c1ccc(COc2ccccc2Br)o1    2.2
O=Cc1ccc(COC(=O)Nc2cccc(Cl)c2)o1    0
CCN(CC)C(=O)c1ccc(COc2ccc(Cl)c(C)c2)o1    100
O=Cc1ccc(COC(=O)Cc2ccsc2)o1    30

Turning to the following compound.
Ask: If you can, please state the reported Inhibition rate against osteoclast formation, % value of CC(C)c1ccc(OCc2ccc(C(=O)O)o2)cc1 .
Reply: 4.2
